Each entry below lists one item and its recorded growth AUC value.
test system: Bifidobacterium longum subsp. longum; assay: growth AUC relative to DMSO control (median of replicates) (fraction); higher = more growth (less inhibition), active = hit call of the paper; conditions: 20 µM; 24 h
observation type: growth AUC

{"compound": "Clc1cc(Cl)c(Cl)c(Cl)c1", "reported": 1}
{"compound": "Oc1ccc(Cl)cc1", "reported": 0.971}
{"compound": "CCOC(=O)C(SP(=S)(OC)OC)c1ccccc1 (centres undefined)", "reported": 1}
{"compound": "COc1ncc(F)c2nc(S(=O)(=O)Nc3c(F)cccc3F)nn12", "reported": 1.01}

---

system: Roseburia intestinalis; assay: growth AUC relative to DMSO control (median of replicates) (fraction); higher = more growth (less inhibition), active = hit call of the paper; settings: 20 µM; 24 h
Returns class 1 if the recorded growth AUC is greater than or equal to 1, and class 0 otherwise.

{"molecule": "CNC(=O)Oc1cc(C)c(SC)c(C)c1", "class assignment": "class 0"}
{"molecule": "CCNc1nc(NC(C)(C)C)nc(SC)n1", "class assignment": "class 1"}
{"molecule": "CNC(=O)Oc1ccc(N(C)C)c(C)c1", "class assignment": "class 0"}
{"molecule": "N#CC(CCc1ccc(Cl)cc1)(Cn1cncn1)c1ccccc1 (configuration not stated)", "class assignment": "class 0"}

---

Each entry below lists one item and its recorded growth AUC value.
system: Eubacterium rectale; assay: growth AUC relative to DMSO control (median of replicates) (fraction); higher = more growth (less inhibition), active = hit call of the paper; settings: 20 µM; 24 h

{"compound": "CN1CSC(=S)N(C)C1", "growth AUC": 1.06}
{"compound": "ClC1=C(Cl)C2(Cl)C(CBr)CC1(Cl)C2(Cl)Cl (centres undefined)", "growth AUC": 1.01}
{"compound": "Oc1ccc(Cc2ccc(O)cc2)cc1", "growth AUC": 1.09}
{"compound": "CCS(=O)c1c(C#N)nn(-c2c(Cl)cc(C(F)(F)F)cc2Cl)c1N (centres undefined)", "growth AUC": 1.02}

---

Each entry below lists one item and its recorded growth AUC value.
tested on: Roseburia intestinalis; assay: growth AUC relative to DMSO control (median of replicates) (fraction); higher = more growth (less inhibition), active = hit call of the paper; details: 20 µM; 24 h
observation type: growth AUC

{"molecule": "O=C1CCc2cccc3c2N1CC3", "reported": 0.989}
{"molecule": "CC/C(=N\\OC/C=C/Cl)C1=C(O)CC(C2CCOCC2)CC1=O (stereo unspecified)", "reported": 1.02}
{"molecule": "CCOC(=O)OC1=C(c2cc(C)ccc2C)C(=O)NC12CCC(OC)CC2 (stereo unspecified)", "reported": 0.995}
{"molecule": "CS(=O)(=O)c1ccc(C(=O)C2C(=O)CCCC2=O)c([N+](=O)[O-])c1", "reported": 0.976}
{"molecule": "Clc1c(Cl)c(Cl)c(Cl)c(Cl)c1Cl", "reported": 1.01}
{"molecule": "CCN(CC)c1nc(C)cc(OP(=S)(OC)OC)n1", "reported": 0.978}

---

test system: Escherichia coli IAI1; experiment: growth AUC relative to DMSO control (median of replicates) (fraction); higher = more growth (less inhibition), active = hit call of the paper; details: 20 µM; 24 h
Each entry below lists one item and its recorded growth AUC value.
observation type: growth AUC

{"compound": "ClC1=C(Cl)C(Cl)(C2(Cl)C(Cl)=C(Cl)C(Cl)=C2Cl)C(Cl)=C1Cl", "reported": 1.01}
{"compound": "CN(C)C(=O)Nc1cccc(OC(=O)NC(C)(C)C)c1", "reported": 0.972}
{"compound": "CCc1cnc(C2=NC(C)(C(C)C)C(=O)N2)c(C(=O)O)c1 (stereo not given)", "reported": 1}
{"compound": "CCOP(=O)(NC(C)C)Oc1ccc(S(C)(=O)=O)c(C)c1 (stereo not given)", "reported": 1.02}
{"compound": "O=[N+]([O-])C(Br)(CO)CO", "reported": 0.987}

---

system: Parabacteroides distasonis; assay: growth AUC relative to DMSO control (median of replicates) (fraction); higher = more growth (less inhibition), active = hit call of the paper; details: 20 µM; 24 h
Each entry below lists one item and its recorded growth AUC value.

{"compound": "O=c1oc2ccccc2c(O)c1C1CC(c2ccc(-c3ccccc3)cc2)Cc2ccccc21 (stereo not given)", "growth AUC": 0.0292}
{"compound": "O=C(O)COc1cc(Cl)c(Cl)cc1Cl", "growth AUC": 1}
{"compound": "CNC(=O)ON=C(C)C(C)SC (stereo not given)", "growth AUC": 0.943}
{"compound": "Cc1ccccc1[N+](=O)[O-]", "growth AUC": 1.06}
{"compound": "CC1(C)CC/C(=C\\c2ccc(Cl)cc2)C1(O)Cn1cncn1 (stereo not given)", "growth AUC": 0.964}
{"compound": "C=CCC1=C(C)C(OC(=O)C2C(C=C(C)C)C2(C)C)CC1=O (mixture of isomers)", "growth AUC": 0.771}
{"compound": "CC(C)CC(C)c1sccc1NC(=O)c1cn(C)nc1C(F)(F)F (stereo not given)", "growth AUC": 0.856}
{"compound": "O=[N+]([O-])c1ccc(O)c([N+](=O)[O-])c1", "growth AUC": 0.948}
{"compound": "CCc1ccc(C(=O)NN(C(=O)c2cc(C)cc(C)c2)C(C)(C)C)cc1", "growth AUC": 1.03}
{"compound": "Cc1cc(C)c(C2=C(OC(=O)CC(C)(C)C)C3(CCCC3)OC2=O)c(C)c1", "growth AUC": 0.772}
{"compound": "CCOP(=S)(OCC)Oc1cc(Cl)c(Br)cc1Cl", "growth AUC": 0.891}
{"compound": "CCOP(=O)(SC(C)CC)SC(C)CC (stereo not given)", "growth AUC": 0.95}
{"compound": "COCC(=O)N(c1c(C)cccc1C)C(C)C(=O)OC (stereo not given)", "growth AUC": 1.05}
{"compound": "CC(C)(C)c1ccc(CCOc2ncnc3ccccc23)cc1", "growth AUC": 0.795}
{"compound": "O=C(NC(=O)c1c(F)cccc1F)Nc1ccc(Oc2ccc(C(F)(F)F)cc2Cl)cc1F", "growth AUC": 0.988}
{"compound": "CCC(C)(C)c1ccc(O)cc1", "growth AUC": 1.03}
{"compound": "CCCN(CCC)c1c([N+](=O)[O-])cc(S(C)(=O)=O)cc1[N+](=O)[O-]", "growth AUC": 0.967}
{"compound": "CN(C)c1nc(=O)n(C2CCCCC2)c(=O)n1C", "growth AUC": 1.03}
{"compound": "OC(Cn1cncn1)(c1ccc(F)cc1)c1ccccc1F (stereo not given)", "growth AUC": 1.01}
{"compound": "Nc1c(Cl)cc([N+](=O)[O-])cc1Cl", "growth AUC": 0.933}
{"compound": "CCC(C)n1c(=O)[nH]c(C)c(Br)c1=O (stereo not given)", "growth AUC": 0.926}
{"compound": "CNC(=O)N(C)c1nc2ccccc2s1", "growth AUC": 0.972}
{"compound": "COP(=S)(OC)Oc1ccc(Sc2ccc(OP(=S)(OC)OC)cc2)cc1", "growth AUC": 1.01}
{"compound": "COc1cc(C)c(C(=O)c2c(OC)ccc(Br)c2C)c(OC)c1OC", "growth AUC": 0.528}
{"compound": "Cc1occc1C(=O)Nc1ccccc1", "growth AUC": 0.971}

---

Each entry below lists one item and its recorded growth AUC value.
system: Lactobacillus paracasei; experiment: growth AUC relative to DMSO control (median of replicates) (fraction); higher = more growth (less inhibition), active = hit call of the paper; details: 20 µM; 24 h
observation type: growth AUC

{"molecule": "COP(=O)(NC(C)=O)SC (stereo not drawn)", "tgt": "Lactobacillus paracasei", "reported": 1.02}
{"molecule": "CCOP(=O)(OCC)ON1C(=O)c2cccc3cccc(c23)C1=O", "tgt": "Lactobacillus paracasei", "reported": 0.971}
{"molecule": "CCCCNC(=O)n1c(NC(=O)OC)nc2ccccc21", "tgt": "Lactobacillus paracasei", "reported": 0.997}

---

test system: Roseburia intestinalis; assay: growth AUC relative to DMSO control (median of replicates) (fraction); higher = more growth (less inhibition), active = hit call of the paper; settings: 20 µM; 24 h
observation type: growth AUC

{"compound": "Nc1nc(N)nc(NC2CC2)n1", "observation type": "growth AUC", "reported": 0.97}
{"compound": "CNC(=O)O/N=C(\\C)SC", "observation type": "growth AUC", "reported": 0.994}
{"compound": "O=[N+]([O-])c1ccc(Oc2ccc(Cl)cc2Cl)cc1", "observation type": "growth AUC", "reported": 0.967}
{"compound": "CC#Cc1cc(C)nc(Nc2ccccc2)n1", "observation type": "growth AUC", "reported": 1.01}
{"compound": "O=P(OCCCl)(OCCCl)OCCCl", "observation type": "growth AUC", "reported": 0.928}
{"compound": "CCCCCCCCCCCCCN1CC(C)OC(C)C1 (stereo not drawn)", "observation type": "growth AUC", "reported": 0.937}
{"compound": "COP(=S)(OC)Oc1ccc(S(=O)(=O)N(C)C)cc1", "observation type": "growth AUC", "reported": 0.971}
{"compound": "CS(=O)(=O)c1ccc(C(=O)C2C(=O)CCCC2=O)c(Cl)c1COCC(F)(F)F", "observation type": "growth AUC", "reported": 0.964}
{"compound": "COC(=O)COc1cc(Cl)c(Cl)cc1Cl", "observation type": "growth AUC", "reported": 0.996}
{"compound": "COP(=O)(OC)Oc1ccc(SC)c(C)c1", "observation type": "growth AUC", "reported": 1.02}
{"compound": "COC(=O)N(OC)c1ccccc1COc1ccn(-c2ccc(Cl)cc2)n1", "observation type": "growth AUC", "reported": 0.945}
{"compound": "CCOP(=S)(OCC)Oc1cc(C)nc(N(CC)CC)n1", "observation type": "growth AUC", "reported": 0.941}
{"compound": "COCC(=O)N(c1c(C)cccc1C)N1CCOC1=O", "observation type": "growth AUC", "reported": 0.994}
{"compound": "Cc1cc(Cl)ccc1O[C@H](C)C(=O)O", "observation type": "growth AUC", "reported": 0.898}
{"compound": "COC(=O)c1ccccc1S(=O)(=O)NC(=O)N(C)c1nc(C)nc(OC)n1", "observation type": "growth AUC", "reported": 0.998}
{"compound": "CCCN(CCC)c1c([N+](=O)[O-])cc(C(F)(F)F)cc1[N+](=O)[O-]", "observation type": "growth AUC", "reported": 1}
{"compound": "CCOCCN(C(=O)CCl)C(=C(C)C)c1ccccc1", "observation type": "growth AUC", "reported": 1.03}
{"compound": "CCOP(=S)(OCC)Oc1cc(-c2ccccc2)on1", "observation type": "growth AUC", "reported": 0.993}
{"compound": "CCS(=O)(=O)Cc1ccccc1OC(=O)NC", "observation type": "growth AUC", "reported": 0.964}
{"compound": "O=P(O)(O)CCCl", "observation type": "growth AUC", "reported": 1.03}
{"compound": "O=C(O)C(F)(F)C(F)(F)C(F)(F)C(F)(F)C(F)(F)C(F)(F)C(F)(F)F", "observation type": "growth AUC", "reported": 1}
{"compound": "C=C(C)CN(CC)c1c([N+](=O)[O-])cc(C(F)(F)F)cc1[N+](=O)[O-]", "observation type": "growth AUC", "reported": 1.01}
{"compound": "c1ccc2c(c1)-c1cccc3cccc-2c13", "observation type": "growth AUC", "reported": 0.956}
